Test system: A-427
Test: relative viability (nuclei count vs DMSO), 5 days (fraction); higher = more cells survive
Conditions: first compound 0.1265 µM
I'd be grateful if you could share measured relative viability for these entries.

Given the entry O=C(O)c1ccc(-c2c[nH]c3ncc(-c4ccccc4)cc23)cc1C1CCCC1 + CS(=O)(=O)CCNCc1ccc(-c2ccc3ncnc(Nc4ccc(OCc5cccc(F)c5)c(Cl)c4)c3c2)o1 [Lapatinib] (partner 2 µM) , report its measured relative viability.
1.06

Given the entry O=C(O)c1ccc(-c2c[nH]c3ncc(-c4ccccc4)cc23)cc1C1CCCC1 + O=C(CCCCCCC(=O)Nc1ccccc1)NO [Vorinostat] (partner 1 µM) , report its measured relative viability.
0.84

Given the entry O=C(O)c1ccc(-c2c[nH]c3ncc(-c4ccccc4)cc23)cc1C1CCCC1 + O=C(c1cc(Cc2n[nH]c(=O)c3ccccc23)ccc1F)N1CCN(C(=O)C2CC2)CC1 [Olaparib] (partner 8 µM) , report its measured relative viability.
0.845

* * *

System: NCI-H1755
Test: relative viability (nuclei count vs DMSO), 5 days (fraction); higher = more cells survive
Conditions: first compound 0.01581 µM
measured-attribute: relative viability
Number, no unit, nothing else.

Given the entry CC1(C)CCC(c2ccc(Cl)cc2)=C(CN2CCN(c3ccc(C(=O)NS(=O)(=O)c4ccc(N[C@H](CCN5CCOCC5)CSc5ccccc5)c(S(=O)(=O)C(F)(F)F)c4)cc3)CC2)C1 [Navitoclax] + Cc1nc(NC(=O)N2CCC[C@H]2C(N)=O)sc1-c1ccnc(C(C)(C)C(F)(F)F)c1 [Alpelisib] (partner 2 µM) , report its measured relative viability.
1

Given the entry CC1(C)CCC(c2ccc(Cl)cc2)=C(CN2CCN(c3ccc(C(=O)NS(=O)(=O)c4ccc(N[C@H](CCN5CCOCC5)CSc5ccccc5)c(S(=O)(=O)C(F)(F)F)c4)cc3)CC2)C1 [Navitoclax] + N=C(N)NC(=N)NCCc1ccccc1 [Phenformin] (partner 250 µM) , report its measured relative viability.
0.659

Given the entry CC1(C)CCC(c2ccc(Cl)cc2)=C(CN2CCN(c3ccc(C(=O)NS(=O)(=O)c4ccc(N[C@H](CCN5CCOCC5)CSc5ccccc5)c(S(=O)(=O)C(F)(F)F)c4)cc3)CC2)C1 [Navitoclax] + NC(=O)Nc1cc(-c2cccc(F)c2)sc1C(=O)N[C@H]1CCCNC1 [AZD7762] (partner 0.2 µM) , report its measured relative viability.
0.462

* * *

I'd be grateful if you could share measured relative viability for these entries.
Test system: HCC-366
Experiment: relative viability (nuclei count vs DMSO), 5 days (fraction); higher = more cells survive
Details: first compound 0.01581 µM

Given the entry CC1(C)CCC(c2ccc(Cl)cc2)=C(CN2CCN(c3ccc(C(=O)NS(=O)(=O)c4ccc(N[C@H](CCN5CCOCC5)CSc5ccccc5)c(S(=O)(=O)C(F)(F)F)c4)cc3)CC2)C1 [Navitoclax] + CS(=O)(=O)N1CCN(Cc2cc3nc(-c4cccc5[nH]ncc45)nc(N4CCOCC4)c3s2)CC1 [Pictilisib] (partner 1 µM) , report its measured relative viability.
0.174

Given the entry CC1(C)CCC(c2ccc(Cl)cc2)=C(CN2CCN(c3ccc(C(=O)NS(=O)(=O)c4ccc(N[C@H](CCN5CCOCC5)CSc5ccccc5)c(S(=O)(=O)C(F)(F)F)c4)cc3)CC2)C1 [Navitoclax] + COc1cccc2cc(-c3nc([C@H]4CC[C@H](C(=O)O)CC4)n4ncnc(N)c34)[nH]c12 [OSI-027] (partner 0.5 µM) , report its measured relative viability.
0.941

Given the entry CC1(C)CCC(c2ccc(Cl)cc2)=C(CN2CCN(c3ccc(C(=O)NS(=O)(=O)c4ccc(N[C@H](CCN5CCOCC5)CSc5ccccc5)c(S(=O)(=O)C(F)(F)F)c4)cc3)CC2)C1 [Navitoclax] + CC(=O)c1c(C)c2cnc(Nc3ccc(N4CCNCC4)cn3)nc2n(C2CCCC2)c1=O [Palbociclib] (partner 0.5 µM) , report its measured relative viability.
0.48
